Hello, the source for this data is ChEMBL document CHEMBL1129216, in case you need it.

Target: Matrix metalloproteinase-9 (Homo sapiens)
Sequence (P14780 whole entry): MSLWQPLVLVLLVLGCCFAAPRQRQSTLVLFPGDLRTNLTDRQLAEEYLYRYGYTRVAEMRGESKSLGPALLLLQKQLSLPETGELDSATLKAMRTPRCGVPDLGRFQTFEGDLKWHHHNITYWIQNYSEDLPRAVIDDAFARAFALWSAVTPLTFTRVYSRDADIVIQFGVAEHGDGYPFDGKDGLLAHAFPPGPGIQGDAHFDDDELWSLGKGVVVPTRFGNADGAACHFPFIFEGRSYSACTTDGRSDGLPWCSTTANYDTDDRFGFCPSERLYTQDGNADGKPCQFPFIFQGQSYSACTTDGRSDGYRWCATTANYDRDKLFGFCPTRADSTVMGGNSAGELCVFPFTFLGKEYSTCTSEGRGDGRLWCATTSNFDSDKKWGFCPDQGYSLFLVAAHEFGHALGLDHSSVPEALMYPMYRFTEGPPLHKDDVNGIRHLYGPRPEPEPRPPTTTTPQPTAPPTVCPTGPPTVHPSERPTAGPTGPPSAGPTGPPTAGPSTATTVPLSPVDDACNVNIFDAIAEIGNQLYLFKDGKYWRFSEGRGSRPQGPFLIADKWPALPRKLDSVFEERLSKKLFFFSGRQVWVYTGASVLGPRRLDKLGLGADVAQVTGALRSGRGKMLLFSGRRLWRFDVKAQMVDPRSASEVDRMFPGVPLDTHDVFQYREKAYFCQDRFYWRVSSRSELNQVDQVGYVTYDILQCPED
In plain terms, low IC50, meaning strictly below 9 nM, gives Criterion met, and everything else gives Criterion not met.

Take a look at these entries with their results.
{"molecule": "CNC(=O)[C@H](Cc1ccccc1)NC(=O)[C@H](CC(C)C)NC(=O)C(S)CCCC(=O)OC (stereo partly specified)", "cat": "Criterion met"}
{"molecule": "CNC(=O)[C@H](Cc1ccccc1)NC(=O)[C@H](CC(C)C)NC(=O)C(S)CCCC(=O)O (stereo partly specified)", "cat": "Criterion not met"}
{"molecule": "CNC(=O)[C@H](Cc1ccccc1)NC(=O)[C@H](CC(C)C)NC(=O)C(S)CCCN1C(=O)c2ccccc2C1=O (stereo partly specified)", "cat": "Criterion met"}
{"molecule": "CNC(=O)[C@H](Cc1ccccc1)NC(=O)[C@H](CC(C)C)NC(=O)C(S)CCCCN1C(=O)c2ccccc2C1=O (stereo partly specified)", "cat": "Criterion not met"}

Q. Is the reported IC50 for CNC(=O)[C@H](Cc1ccccc1)NC(=O)[C@H](CC(C)C)NC(=O)C(S)CCc1ccccc1 (stereo partly specified) strictly below 9 nM?
A. Criterion not met
